Every entry's value here was drawn from patent US9732075B2.

test-target: human orexin-1 receptor (Homo sapiens (Human))
assay-explanation: In vitro assay: intracellular calcium measurements (FLIPR), antagonistic activity
settings: CHO cells expressing human orexin-1 receptor, orexin-A agonist, geometric mean, read-out: IC50 Ox1
Please respond with y when measured IC50 is strictly beneath 30 nM, and with n in all other cases.

C=C1C[C@@H](c2nc3cc(C(C)(C)C)ccc3[nH]2)N(C(=O)c2ccc(C)cc2-n2nccn2)C1 [Ex. 6.166] :: n
Cc1nc(C(=O)N2CC[C@H](C)[C@H]2c2nc3c(Cl)cccc3[nH]2)c(-c2ccc(C)c(C)c2)s1 [Ex. 4.125] :: y
C=C1C[C@@H](c2nc3c(SC)cccc3[nH]2)N(C(=O)c2nc(C)sc2-c2ccc(C)c(C)c2)C1 [Ex. 6.49] :: y

API: the following record is the query input.
// query IC50 under 30 nM? Item: Cc1ccc(C(=O)N2CC[C@H](C)[C@H]2c2nc3c(C)c(Cl)ccc3[nH]2)c(-c2ccccn2)c1 [Ex. 4.167]
// result y

* * *

test-target: human orexin-1 receptor (Homo sapiens (Human), UniProt O43613)
Sequence (O43613 whole entry): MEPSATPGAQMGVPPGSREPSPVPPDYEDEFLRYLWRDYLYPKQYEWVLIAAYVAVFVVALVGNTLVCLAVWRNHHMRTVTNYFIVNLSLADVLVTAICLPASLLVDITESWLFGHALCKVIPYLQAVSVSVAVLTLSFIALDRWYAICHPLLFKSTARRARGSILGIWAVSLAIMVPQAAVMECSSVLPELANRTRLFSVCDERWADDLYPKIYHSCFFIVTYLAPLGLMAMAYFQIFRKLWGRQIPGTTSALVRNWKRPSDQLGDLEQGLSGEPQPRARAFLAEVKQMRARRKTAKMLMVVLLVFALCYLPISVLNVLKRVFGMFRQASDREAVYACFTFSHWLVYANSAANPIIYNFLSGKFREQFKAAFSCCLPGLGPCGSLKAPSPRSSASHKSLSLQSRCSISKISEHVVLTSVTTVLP
assay-explanation: In vitro assay: intracellular calcium measurements (FLIPR), antagonistic activity
settings: CHO cells expressing human orexin-1 receptor, orexin-A agonist, geometric mean, read-out: IC50 Ox1
Reported log10 of IC50 is given for each of the following molecules.
# values: log10(IC50), units nM

Take a look at these entries with their results.
Cc1ccc(C(=O)N2CCC[C@@]2(C)c2nc3cc(OC(F)(F)F)ccc3[nH]2)c(-n2nccn2)c1 :: 1.36
Cc1cc(C(=O)N2CCC[C@@]2(C)c2nc3c(C)c(Cl)ccc3[nH]2)c(-c2ccccc2)cn1 :: 1.40
CSc1ccc2nc([C@@H]3CCCN3C(=O)c3cnc(C)nc3-c3ccc(F)cc3)[nH]c2c1 :: 2.60
C=C1C[C@@H](c2nc3ccc(Cl)c(C)c3[nH]2)N(C(=O)c2cc(Cl)ccc2-n2nccn2)C1 :: 1.30
Cc1nc(C(=O)N2CCCC2c2nc3c(Cl)cc(C(F)(F)F)cc3[nH]2)c(-c2cccc(Cl)c2)s1 (stereo not drawn) :: 1.43
Cc1ccc(-n2nccn2)c(C(=O)N2C[C@H](F)C[C@H]2c2nc3c(C)c(Cl)ccc3[nH]2)c1 :: 0.78
CSc1cccc2nc([C@@H]3CCCN3C(=O)c3nccnc3-c3cc(C)cc(F)c3)[nH]c12 :: 1.72
C=C1C[C@@H](c2nc3cc(OC)ccc3[nH]2)N(C(=O)c2ccccc2-c2csc(C)n2)C1 :: 3.29
Cc1ccc(C(=O)N2CCC[C@@]2(C)c2nc3c(F)c(F)ccc3[nH]2)c(-n2nccn2)c1 :: 2.36
Cc1nc(C(=O)N2CC[C@H](C)[C@H]2c2nc3cc(Cl)ccc3[nH]2)c(-c2cccc(Cl)c2)s1 :: 1.00

// query Return reported log10 of IC50; argument: C[C@@]1(c2nc3cc(Cl)c(C(F)(F)F)cc3[nH]2)CCCN1C(=O)c1nc(-c2ccc(F)cc2)sc1-c1ccc(F)cc1
// result 1.68

// query Cool, now COc1ccc(-c2ccc(C)cc2C(=O)N2CCC[C@@]2(C)c2nc3cc(C(F)(F)F)ccc3[nH]2)cc1
// result 1.26

// query Can you check Cc1nc(C(=O)N2CCC[C@@]2(C)c2nc3c(C)c(Cl)ccc3n2C)c(-c2cccc(Cl)c2)s1 next?
// result 0.00

// query Ok, now Cc1ccc(-n2nccn2)c(C(=O)N2CCC[C@@]2(C)c2nc3cc(C(F)(F)F)ccc3[nH]2)c1F
// result 1.80

// query Now the molecule Cc1ccc(-n2nccn2)c(C(=O)N2C[C@H](F)C[C@H]2c2nc3c(C)cccc3[nH]2)c1
// result 1.84

* * *

test-target: UniProt:O43614
assay-explanation: In vitro assay: intracellular calcium measurements (FLIPR), antagonistic activity
settings: CHO cells expressing human orexin-2 receptor, orexin-A agonist, geometric mean, read-out: IC50 Ox2
Procedure: In Vitro Assay: Intracellular Calcium Measurements: […] Within the Fluorescent Imaging Plate Reader (FLIPR Tetra, Molecular Devices), antagonists are added to the plate in a volume of 10 μl/well, incubated for 120 min and finally 10 μl/well of agonist is added. […] The calculated IC50 values may fluctuate depending on the daily cellular assay performance. […]
Class membership depends on IC50 alone; the intervals are low end = under 20 nM, middle = from 20 nM up to 200 nM, high end = 200 nM and over

Cc1nc(C(=O)N2CC[C@H](C)[C@H]2c2nc3cc(C)c(C)cc3[nH]2)c(-c2ccc(Cl)cc2)s1 [Ex. 4.87] :: high end
C=C1C[C@@H](c2nc3cc(C)c(C)cc3[nH]2)N(C(=O)c2c(C)cccc2-n2nccn2)C1 [Ex. 6.199] :: low end
COc1ccc(-c2nccnc2C(=O)N2CCC[C@H]2c2nc3cccc(SC)c3[nH]2)cc1 [Ex. 1.72] :: middle

// query For this molecule, which bin applies? CCc1ccc(-c2sc(C)nc2C(=O)N2CCC[C@H]2c2nc3ccc(OC)cc3[nH]2)cc1 [Ex. 1.24]
// result middle

// query One more molecule: C=C1C[C@@H](c2nc3cc(OC)ccc3[nH]2)N(C(=O)c2ccccc2-c2csc(C)n2)C1 [Ex. 6.21]
// result middle

// query Similarly, Cc1ccc(-c2cccc(F)c2)c(C(=O)N2CCC[C@@]2(C)c2nc3cc(C(F)(F)F)ccc3[nH]2)c1 [Ex. 5.182] ?
// result middle

* * *

test-target: human orexin-1 receptor (Homo sapiens (Human), UniProt O43613)
assay-explanation: In vitro assay: intracellular calcium measurements (FLIPR), antagonistic activity
settings: CHO cells expressing human orexin-1 receptor, orexin-A agonist, geometric mean, read-out: IC50 Ox1
metric-name: IC50 (nM)
Return type: number; implicit unit nM.

Examples with answers:
CSc1cccc2nc([C@@H]3CCCN3C(=O)c3nc(C)sc3-c3cccc(Cl)c3)[nH]c12 [Ex. 1.13] :: 15
Cc1cc2nc([C@@H]3[C@@H](C)CCN3C(=O)c3ccccc3-n3nccn3)[nH]c2cc1C [Ex. 4.85] :: 7
COc1ccc(-c2ccc(C)cc2C(=O)N2CCC[C@@]2(C)c2nc3cc(C)c(C)cc3[nH]2)cc1 [Ex. 5.94] :: 14
Cc1nc(C(=O)N2CCC[C@@]2(C)c2nc3c(C)c(C)c(Br)cc3[nH]2)c(-c2ccc(C)c(C)c2)s1 [Ex. 5.273] :: 7
Cc1ccc(-n2nccn2)c(C(=O)N2CCC[C@@]2(C)c2nc3cc(OC(F)(F)F)ccc3[nH]2)c1 [Ex. 5.20] :: 19

// query Item under review: CO[C@@H]1C[C@@H](c2nc3c(C)cccc3[nH]2)N(C(=O)c2nc(C)sc2-c2ccccc2)C1 [Ex. 3.4] . Reported IC50?
// result 44

// query Same lookup for COc1cc2nc([C@@H]3[C@@H](C)CCN3C(=O)c3c(-n4nccn4)ccc(OC)c3F)[nH]c2cc1OC [Ex. 4.45] , please.
// result 124

* * *

Measured IC50 by item
test-target: human orexin-2 receptor (Homo sapiens (Human))
Sequence (O43614 whole entry): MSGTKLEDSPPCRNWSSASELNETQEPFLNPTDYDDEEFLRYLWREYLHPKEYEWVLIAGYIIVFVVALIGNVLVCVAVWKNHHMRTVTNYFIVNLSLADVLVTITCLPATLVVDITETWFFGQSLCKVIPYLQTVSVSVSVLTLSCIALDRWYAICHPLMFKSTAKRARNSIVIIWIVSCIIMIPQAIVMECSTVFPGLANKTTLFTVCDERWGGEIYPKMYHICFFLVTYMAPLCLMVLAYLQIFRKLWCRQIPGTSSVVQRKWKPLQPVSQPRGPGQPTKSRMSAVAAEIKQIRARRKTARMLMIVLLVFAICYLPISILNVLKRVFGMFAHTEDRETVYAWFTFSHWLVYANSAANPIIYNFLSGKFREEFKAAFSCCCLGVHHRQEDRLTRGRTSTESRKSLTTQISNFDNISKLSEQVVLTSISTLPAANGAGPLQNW
assay-explanation: In vitro assay: intracellular calcium measurements (FLIPR), antagonistic activity
settings: CHO cells expressing human orexin-2 receptor, orexin-A agonist, geometric mean, read-out: IC50 Ox2
Give the value in nM but do not write nM after it.

Examples with answers:
CO[C@H]1CN(C(=O)c2ccccc2-n2cccn2)C(C)(c2nc3c(C)c(Cl)ccc3[nH]2)C1 (stereo partly shown) [Ex. 3.54] :: 44
Cc1nc(C(=O)N2CC[C@H](C)[C@H]2c2nc3c(C)c(Cl)ccc3[nH]2)c(-c2ccc(F)cc2)s1 [Ex. 4.70] :: 404
CO[C@H]1C[C@@H](c2nc3c(C)c(Cl)ccc3[nH]2)N(C(=O)c2nc(C)sc2-c2cccc(Cl)c2)C1 [Ex. 3.8] :: 12
Cc1ccc(-c2ncccn2)c(C(=O)N2CC[C@H](C)[C@H]2c2nc3cc(C)c(C)cc3[nH]2)c1 [Ex. 4.183] :: 2260
C[C@@]1(c2nc3cc(C(F)(F)F)ccc3[nH]2)CCCN1C(=O)c1ccccc1-n1nccn1 [Ex. 5.167] :: 351
C=C1C[C@@H](c2nc3c(Cl)cccc3[nH]2)N(C(=O)c2nc(C)sc2-c2ccc(C)c(C)c2)C1 [Ex. 6.51] :: 3

Then this compound:
// query Which measured IC50 value corresponds to C=C1C[C@@H](c2nc3cc(Cl)c(C(F)(F)F)cc3[nH]2)N(C(=O)c2nc(C)ccc2-n2nccn2)C1 [Ex. 6.190] ?
// result 9

* * *

test-target: UniProt:O43614
assay-explanation: In vitro assay: intracellular calcium measurements (FLIPR), antagonistic activity
settings: CHO cells expressing human orexin-2 receptor, orexin-A agonist, geometric mean, read-out: IC50 Ox2
Procedure: In Vitro Assay: Intracellular Calcium Measurements: […] Within the Fluorescent Imaging Plate Reader (FLIPR Tetra, Molecular Devices), antagonists are added to the plate in a volume of 10 μl/well, incubated for 120 min and finally 10 μl/well of agonist is added. […] The calculated IC50 values may fluctuate depending on the daily cellular assay performance. […]
pIC50: −log10 of the molar value.
Record Yes whenever pIC50 is at 7 or higher; record No when lower.

Below, 4 molecules whose answers are already recorded.
Cc1nc(C(=O)N2CC[C@H](C)[C@H]2c2nc3cc(F)ccc3[nH]2)c(-c2cccc(Cl)c2)s1 :: No
COc1cccc(C#Cc2ccccc2C(=O)N2CCC[C@@]2(C)c2nc3cc(C(F)(F)F)ccc3[nH]2)c1 :: No
Cc1ccc(-c2ncccn2)c(C(=O)N2CCC[C@@]2(C)c2nc3cc(C(F)(F)F)c(Cl)cc3[nH]2)c1 :: Yes
Cc1nc(C(=O)N2CCCC2c2nc3c4c(ccc3[nH]2)OCCO4)c(-c2cccc(Cl)c2)s1 (racemic) :: Yes

// query Entry CO[C@@H]1C[C@@H](c2nc3c(C)cccc3[nH]2)N(C(=O)c2nc(C)sc2-c2ccccc2)C1 : is its pIC50 no less than 7?
// result Yes

// query Same question, Cc1ccc(-c2ncccn2)c(C(=O)N2CCC[C@@]2(C)c2nc3cccc(C)c3[nH]2)c1 this time
// result Yes

// query Cool, now Cc1ccc(-n2nccn2)c(C(=O)N2C[C@@H](F)C[C@H]2c2nc3ccc(Cl)c(C)c3[nH]2)c1
// result Yes
